biological target: TrCel7A (Trichoderma reesei); construct: TrCel7A was purified from the culture filtrate of Tr QM 9414 as described previously; made in house; host or cells: Trichoderma reesei QM 9414 culture filtrate (native producer); assay: Cellobiose inhibition of MUL hydrolysis by TrCel7A; format: biochemical; conditions: Ki for cellobiose, MUL substrate (5 μM), 50°C
Sequence (P62694 18-513): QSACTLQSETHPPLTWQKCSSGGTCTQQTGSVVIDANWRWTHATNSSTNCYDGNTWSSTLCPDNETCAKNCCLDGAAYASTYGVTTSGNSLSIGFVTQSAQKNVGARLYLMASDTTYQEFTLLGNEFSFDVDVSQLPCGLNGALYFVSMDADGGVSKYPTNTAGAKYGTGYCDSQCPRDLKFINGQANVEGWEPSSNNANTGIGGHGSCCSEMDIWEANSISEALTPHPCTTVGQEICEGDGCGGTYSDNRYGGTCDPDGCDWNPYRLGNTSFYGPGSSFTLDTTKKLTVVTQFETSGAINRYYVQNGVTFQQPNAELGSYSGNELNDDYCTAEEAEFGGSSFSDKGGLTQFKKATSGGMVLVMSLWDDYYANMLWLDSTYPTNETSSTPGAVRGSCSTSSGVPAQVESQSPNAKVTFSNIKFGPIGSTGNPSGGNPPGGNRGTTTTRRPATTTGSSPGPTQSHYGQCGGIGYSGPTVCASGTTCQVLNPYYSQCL
Reported endpoint: pKi
Quick note: pKi values are minus log10 of concentrations in mol/L.

Exercise: What value of pKi has been reported for the following compound? O=C[C@H](O)[C@@H](O)[C@H](O[C@@H]1O[C@H](CO)[C@@H](O)[C@H](O)[C@H]1O)[C@H](O)CO
Key: 3.91
